Biological target: ileal transporter of the rabbit (RIBAT) (Oryctolagus cuniculus)
Construct: contained the total protein-coding region of the RIBAT; expressed in transfected cells; host or cells: CHO cells, stably transfected with pRIBAT8 (pcDNA1neo vector), G418-selected clonal line
Sequence (Q28727 1-347): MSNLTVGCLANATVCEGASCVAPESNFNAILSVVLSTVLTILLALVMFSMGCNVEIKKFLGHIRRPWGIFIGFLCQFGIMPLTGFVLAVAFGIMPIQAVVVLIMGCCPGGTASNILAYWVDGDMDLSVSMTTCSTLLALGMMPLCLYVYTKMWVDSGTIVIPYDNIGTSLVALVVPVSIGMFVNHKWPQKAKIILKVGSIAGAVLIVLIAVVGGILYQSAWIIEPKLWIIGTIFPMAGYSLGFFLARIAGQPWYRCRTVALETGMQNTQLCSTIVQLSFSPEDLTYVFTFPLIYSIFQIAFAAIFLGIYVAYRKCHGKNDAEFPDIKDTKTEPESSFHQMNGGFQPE
Assay: Inhibition of [24-14C]-taurocholic acid uptake in CHO/pRIBAT8 cells
Type: cell-based
Conditions: 21° C., 30 minutes
readout_kind: pIC50
By convention, pIC50 is the negative base-10 log of a molar concentration.

Q: Input CCCCC1(CC)CS(=O)(=O)c2cc(O[C@@H]3O[C@H](C(=O)O)[C@@H](O)[C@H](O)[C@H]3O)ccc2C(c2ccccc2)N1 (stereo partly shown) , output reported pIC50.
Ans: 7.15
